Numbers sourced from patent US20220401514A1.

Test system: Pseudomonas aeruginosa
Assay: microbe, parasite or virus in culture
Type: cell-based
Settings: P. aeruginosa isolates (n per peptide in table)

Item sequence: MLTVWSDTPTIKRRKDMYRKRMSRKKSKKVFAKTAMKVNKRNHVKPMRGGYRI [Gkh3]
Readout relation: =
MIC50 [µg/mL]: 8

Item sequence: MARRKKMKGKRDKRVFKQTANKTKAINISPKNMRGGTRL [Unp3]
Readout relation: >
MIC50 [µg/mL]: 8

Item sequence: MRLKMARRRYRLPRRRSRRLFSRTALRMHPRNRLRRIMRGGIRF [Chp2]
Readout relation: =
MIC50 [µg/mL]: 1

Item sequence: MARSRRRMSKRSSRRSFRKYAKTHKKNFKARSMRGGIRL [Ecp3]
Readout relation: =
MIC50 [µg/mL]: 2

Item sequence: MRRKVKNTKRHQWRLTHSARSIKRANIMPSNPRGGRRF [Spi2]
Readout relation: >
MIC50 [µg/mL]: 8

Item sequence: MRKRMSKRVDKKVFRRTAASAKKINIDPKIYRGGIRL [Osp1]
Readout relation: >
MIC50 [µg/mL]: 8

Item sequence: MMKYRKKMSAKSSRKQFTKGAMKVKGKNFTKPMRGGIRL [Unp5]
Readout relation: >
MIC50 [µg/mL]: 8

Item sequence: MRRRRLSRRTSRRFFRKGLKVRRRNLRARPMRGGFRI [Unp2]
Readout relation: =
MIC50 [µg/mL]: 1

Item sequence: MAYRGFKTSRVVKHRVRRRWFNHRRRYR [Spi1]
Readout relation: =
MIC50 [µg/mL]: 4

Item sequence: MAKKIRNKARDRRIFTRTASRMHKANRTPRFMRGGIRL [ALCES1]
Readout relation: >
MIC50 [µg/mL]: 8

Item sequence: MARSRRRMSKRSSRRSFRKYAKTHKRNFKARSMRGGIRL [Ecp1]
Readout relation: =
MIC50 [µg/mL]: 4

Item sequence: MRRPRKMNYKKSKRMFSRTAARTHRKNSLRGSRPMRGGIRL [Gkh1]
Readout relation: =
MIC50 [µg/mL]: 8

Item sequence: MSKKRSRMSRRRSKKLFSKTALRTKSVNTRPPMRGGFRF [Chp8]
Readout relation: =
MIC50 [µg/mL]: 8

Item sequence: MKRRKLSKKKSRKIFTRGAVNVKKRNLRARPMRGGFRI [Chp10]
Readout relation: =
MIC50 [µg/mL]: 4

Item sequence: MSLRRHKLSRKASKRIFRKGASRTKTLNTRATPMRGGFRI [Chp9]
Readout relation: >
MIC50 [µg/mL]: 8

Item sequence: MARRRYRLPRRRSRRLFSRTALRMHPRNRLRRIMRGGIRF [Chp6]
Readout relation: =
MIC50 [µg/mL]: 1

Item sequence: MVRRRRLRRRISRRIFRRTVARVGRRRRSFRGGIRF [Chp1]
Readout relation: =
MIC50 [µg/mL]: 2

Item sequence: MARRYRLSRRRSRRLFSRTALRMHRRNRLRRIMRGGIRF [Chp4]
Readout relation: =
MIC50 [µg/mL]: 1

Item sequence: MARSRRRMSKRSSRRSFRKYAKSHKKNFKARSMRGGIRL [Ecp2]
Readout relation: =
MIC50 [µg/mL]: 2
